# credit: a melting point compilation (Tetko et al.; mined from patent text by program, amines drawn as free bases though some values may be those of a salt)

EXPERIMENTAL READOUT: melting point

Below, each entry is followed by its recorded melting point result.
>>> print(df.to_string())
                                   compound          value
0              O=C1NCCN1Cc1ccc2c(Br)cccc2c1  158 to 161 °C
1  CN[C@@H](C)[C@@H]1CCN(c2c(F)cc3c(=O)[nH]c(=O)n(C4CC4)c3c2OC)C1  162 to 164 °C
2  OC(c1cccc(OCc2ccc3ccccc3n2)c1)(c1nccs1)C(F)(F)F (stereo not given)         177 °C
3  CC1(C(CCO)C(N)=O)OCCc2c1[nH]c1ccccc21 (stereo not given)  159 to 161 °C
4  CC(=O)Nc1ccc(S(=O)(=O)Nc2ccn(CC3CC3)c(=O)n2)cc1  222 to 224 °C

Query: melting point; subject: COc1cccc(C2=C(CC(C)N3CCCC3)C(=O)NCCC2)c1 (stereo not given) 94 to 96 °C

Query: melting point; subject: CCCCCNC(=O)[C@@H]1CCCN1C(=O)[C@@H](N)CC 140 to 141 °C

Query: melting point; subject: COc1ccc(C(CC(C)=O)N2C(=O)c3cccc(NC(C)=O)c3C2=O)cc1OC1CCCC1 (stereo not given) 145 to 147 °C

---

EXPERIMENTAL READOUT: melting point

Below, each entry is followed by its recorded melting point result.
>>> print(df.to_string())
                                   compound          value
0    Cc1ccc(C2=NNC(=O)Cc3cc4c(cc32)OCO4)cc1  222 to 224 °C
1  Cc1cccc2c1nc(-c1ccccc1F)n2CC(O)C(C)(C)C (configuration not stated)  178 to 179 °C
2  FC(F)(F)C(F)(F)C(F)(F)C(F)(F)C(F)(F)C(F)(F)C(F)(F)C(F)(F)C(F)(F)Br          30 °C
3  CCCc1c(O)c(C(=O)O)cc(Cl)c1OCCCCCCc1cccc(O)c1O  110 to 113 °C
4       CCCOc1nc2sc(Cl)cc2c(=NC(=O)OC)n1CCC    65 to 67 °C

Query: melting point; subject: O=C(O)CCC(NC(=O)c1cccc(-c2ccccc2OC2OC(CO)C(O)C(O)C2O)c1)C(=O)O (configuration not stated) 109 to 112 °C

Query: melting point; subject: OCC1OC(n2cnc3c(NCCC(c4ccccc4)c4ccccc4)ncnc32)C(O)C1O (configuration not stated) 103 to 118 °C

Query: melting point; subject: CC(=O)c1cc(-c2ccncc2)sc1Oc1ccccc1 103 to 105 °C

Query: melting point; subject: CCOP(=S)(OCC)N1C(=O)c2ccccc2C1=O 81 to 83 °C

Query: melting point; subject: CCn1nnnc1CCC1(C)Cn2cc([N+](=O)[O-])nc2O1 (configuration not stated) 135 to 137 °C

Query: melting point; subject: OCCNCCOCCOCCNCCO 49 to 55 °C

Query: melting point; subject: COc1ccc2c(c1)cc(C(=O)O)n2-c1ccccc1 197 to 204 °C

Query: melting point; subject: Oc1ccc2c(c1)COc1c-2cc2ccc(O)cc2c1-c1ccoc1 216 to 218 °C

---

EXPERIMENTAL READOUT: melting point

In [3]: df
Out[3]:
                                   molecule          value
0             COC(=O)c1ccccc1-c1ccc(CBr)cc1    51 to 53 °C
1  CN(C)c1ccc(-c2ccnc3c(C(=O)c4cccs4)cnn23)cc1NC(=O)c1ccccc1Cl  220 to 222 °C
2        C=C(C)C(=O)OCCOc1ccc(-c2ccccc2)cc1    59 to 60 °C
3  CCOC(=O)c1cn(-c2nc(NCc3ccc(OC)cc3)c(F)cc2F)c2c(F)c(F)c(F)c(NCc3ccccc3)c2c1=O  146 to 148 °C
4  Cc1c(C(=O)O)c(CC(=O)O)n(C)c1C(=O)c1ccc(Cl)cc1  253 to 254 °C
5  COC(=O)CC1(C)C(=O)N(C)c2ccc(OC)cc21 (centres undefined)    83 to 84 °C
6  CCOC(=O)C(C#N)=NOC(=O)Oc1cc(Cl)c(Cl)cc1Cl  101 to 103 °C
7           O=C(O)c1cc2cc(F)ccc2n1Cc1ccncc1  282 to 283 °C
8  CS(=O)(=O)NCc1ccc(-n2c(-c3cccnc3N)nc3cc(-c4cccnc4)cnc32)cc1  127 to 129 °C
9  CC(=NN)c1ccc2c(c1)C(C(Cl)(Cl)Cl)OC(C(Cl)(Cl)Cl)O2 (centres undefined)         159 °C

Query: melting point; subject: NC(=O)c1ncn2c1[C@@H]1CCN1C(=O)c1cc(F)ccc1-2 223 to 224 °C

Query: melting point; subject: Cc1nn(CCCCO)c(-c2ccc(F)cc2)c1-c1ccc2c(c1)NC(=O)CO2 194 to 196 °C

Query: melting point; subject: CC(C)OC1CCCC(C2NC(=O)C2C(C)O[Si](C)(C)C(C)(C)C)C1O (centres undefined) 121 to 123 °C

Query: melting point; subject: CC(C)c1cc(C(=O)Nc2ccc(CCC(=O)O)cc2)oc1C(C)C 139 to 141 °C

Query: melting point; subject: O=C(Nc1ccc2[nH]c(=O)sc2c1)C(=O)N1CCC(Oc2ccc(Cl)cc2)CC1 245 to 247 °C

Query: melting point; subject: CCCCCOc1cc2c(cc1C(=O)Oc1ccc(C(=O)O)cn1)C(C)(C)CCC2(C)C 132 to 133 °C

Query: melting point; subject: CCCCCC(CC(=O)Nc1cc(C(=O)O)ccc1C(C)(C)C)c1ccc(CCCC)cc1OC (centres undefined) 136 to 138 °C

Query: melting point; subject: Cc1sc(-c2ccccc2)nc1COc1ccc(CCCC(O)C#N)cc1 (centres undefined) 101 to 102 °C

Query: melting point; subject: C#Cc1cccc(Nc2ncnc3ccc(-c4ccccc4C(=O)OCC)cc23)c1 174 to 177 °C

---

EXPERIMENTAL READOUT: melting point

Below, each entry is followed by its recorded melting point result.
                                   compound          value
0  N#Cc1cc(-c2cc(C(F)F)c3c(-c4cccnc4)nn(C4CCCCO4)c3n2)ccc1N (stereo not given)         140 °C
1            CCCCCCCCCCCCCCC#Cc1cccc(C=O)n1  38.5 to 40 °C
2  CN1CC(CNN)CC2c3cccc4[nH]cc(c34)CC21 (stereo not given)  171 to 172 °C

Query: melting point; subject: ClCc1cccc2c(-c3ccccc3)nccc12 104 °C

Query: melting point; subject: O=C1C(c2cc3c(cc2O)OCC3)c2cc(F)ccc2N1C(c1ccccc1)c1ccccc1 (stereo not given) 179 to 181 °C

Query: melting point; subject: CC(S)C(=O)N1c2ccccc2CCC1C(=O)O (stereo not given) 141 to 143 °C

Query: melting point; subject: CCOC(=O)c1c(Cn2cnnc2)nc2sc(C)c(C)c2c1-c1ccc2c(c1)OCO2 96 to 98 °C

Query: melting point; subject: CN(C)CC1Cc2ccccc2N(S(C)(=O)=O)C1 (stereo not given) 69 to 70 °C

---

EXPERIMENTAL READOUT: melting point

                                   compound          value
0  COC1OCC[C@@H]1NC(=O)[C@H](CC(C)C)NC(=O)OCc1ccccc1 (stereo partly specified)  112 to 113 °C
1                 CCCCC(=N)NC(=O)Nc1ccccc1O  173 to 175 °C
2  CC(C)c1nc(CCOC(N)=O)n(Cc2ccccc2N)c1Sc1cc(Cl)cc(Cl)c1  167 to 170 °C

Query: melting point; subject: C[C@]12CC(=O)[C@H]3[C@@H](CCC4=CC(=O)CC[C@@H]43)[C@@H]1CCC2=O 204 to 209 °C

Query: melting point; subject: Oc1ccc2nc(-c3ccc(O)c(F)c3)oc2c1 269 to 271 °C

Query: melting point; subject: CC(C)S(=O)(=O)C1C(=O)N(Cc2ccccc2)C(=O)c2ccc(Cl)cc21 (stereo unspecified) 150 to 152 °C

Query: melting point; subject: O=C(NC1CCOCC1)c1ccc(-c2cc(-c3c[nH]nc3-c3ccccn3)ccn2)cc1 248 °C

Query: melting point; subject: COc1ncnc2cc(Br)sc12 111 to 113 °C

Query: melting point; subject: COCCCCC(=O)c1ccc([N+](=O)[O-])c(Cl)c1 54.5 to 56 °C

Query: melting point; subject: CC(=O)Nc1ccc(C2=NNC(=O)NC2C)cc1Cl (stereo unspecified) 250 to 252 °C

Query: melting point; subject: NCCNc1ccc2ccccc2n1 124 to 125 °C
